Measured values drawn from patent US5066644A for this set.

tested on: rosette forming cells; assay: Rosette forming cells (primary response) in prednisolone-immunodepressed mice; type: in vivo; conditions: 200 mg/kg/die os
Non-standard residues stand in square brackets, D forms with d. Residues, ends and D or L forms follow the SMILES beside them. ξ: configuration not given here. *: point of attachment. pGlu = O=C1CC[C@@H](C(=O)O)N1; Morpholide = C1CN(*)CCO1; ξThz = O=C(O)C1CSCN1
Below is a list of entries, each paired with its recorded Rosette forming cells/spleen cells % value.
Endpoint Label: Rosette forming cells/spleen cells % (%)

[[record]]
compound = "NC(=O)C1CSCN1C(=O)[C@@H]1CCC(=O)N1 (stereo partly shown) [Ia] ([pGlu]-[ξThz]-NH2)"
unit_of_measure = "%"
quantitative_result = 1.140

[[record]]
compound = "O=C1CC[C@@H](C(=O)N2CSCC2C(=O)O)N1 (stereo partly shown) [PGT, reference compound] ([pGlu]-[ξThz]-OH)"
unit_of_measure = "%"
quantitative_result = 1.125

[[record]]
compound = "O=C1CC[C@@H](C(=O)N2CSCC2C(=O)N2CCOCC2)N1 (stereo partly shown) [Ib] ([pGlu]-[ξThz]-Morpholide)"
unit_of_measure = "%"
quantitative_result = 1.138

[[record]]
compound = "CCNC(=O)C1CSCN1C(=O)[C@@H]1CCC(=O)N1 (stereo partly shown) [Ic] ([pGlu]-[ξThz]-NHEt)"
unit_of_measure = "%"
quantitative_result = 1.145


----------
tested on: delayed hypersensitivity by DNCB; assay: Delayed hypersensitivity induced by DNCB in prednisolone-immunodepressed mice; assay type: in vivo; conditions: 200 mg/kg/die os; vs. control group
Non-standard residues stand in square brackets, D forms with d. Residues, ends and D or L forms follow the SMILES beside them. ξ: configuration not given here. *: point of attachment. pGlu = O=C1CC[C@@H](C(=O)O)N1; Morpholide = C1CN(*)CCO1; ξThz = O=C(O)C1CSCN1
Recorded Increase % by entry
Endpoint Label: Increase % (%)

[[record]]
compound = "CCNC(=O)C1CSCN1C(=O)[C@@H]1CCC(=O)N1 (stereo partly shown) [Ic] ([pGlu]-[ξThz]-NHEt)"
target_or_test_system = "delayed hypersensitivity by DNCB"
unit_of_measure = "%"
quantitative_result = 29.05

[[record]]
compound = "NC(=O)C1CSCN1C(=O)[C@@H]1CCC(=O)N1 (stereo partly shown) [Ia] ([pGlu]-[ξThz]-NH2)"
target_or_test_system = "delayed hypersensitivity by DNCB"
unit_of_measure = "%"
quantitative_result = 27.68

[[record]]
compound = "O=C1CC[C@@H](C(=O)N2CSCC2C(=O)O)N1 (stereo partly shown) [PGT, reference compound] ([pGlu]-[ξThz]-OH)"
target_or_test_system = "delayed hypersensitivity by DNCB"
unit_of_measure = "%"
quantitative_result = 19.44

[[record]]
compound = "O=C1CC[C@@H](C(=O)N2CSCC2C(=O)N2CCOCC2)N1 (stereo partly shown) [Ib] ([pGlu]-[ξThz]-Morpholide)"
target_or_test_system = "delayed hypersensitivity by DNCB"
unit_of_measure = "%"
quantitative_result = 28.74


----------
Reported values of Variation versus the cyclophosphamide treated group % for individual entries
tested on: reticulo-endothelial system; experiment: Activity of the reticulo-endothelial system (colloidal charcoal clearance) in cyclophosphamide-immunodepressed mouse; type: in vivo; conditions: 100 mg/kg/die i.p.
Non-standard residues stand in square brackets, D forms with d. Residues, ends and D or L forms follow the SMILES beside them. ξ: configuration not given here. *: point of attachment. pGlu = O=C1CC[C@@H](C(=O)O)N1; Morpholide = C1CN(*)CCO1; ξThz = O=C(O)C1CSCN1
Endpoint Label: Variation versus the cyclophosphamide treated group %

[[record]]
molecule = "NC(=O)C1CSCN1C(=O)[C@@H]1CCC(=O)N1 (stereo partly shown) [Ia] ([pGlu]-[ξThz]-NH2)"
target_or_test_system = "reticulo-endothelial system"
result = "+15.62%"

[[record]]
molecule = "CCNC(=O)C1CSCN1C(=O)[C@@H]1CCC(=O)N1 (stereo partly shown) [Ic] ([pGlu]-[ξThz]-NHEt)"
target_or_test_system = "reticulo-endothelial system"
result = "+15.94%"

[[record]]
molecule = "O=C1CC[C@@H](C(=O)N2CSCC2C(=O)O)N1 (stereo partly shown) [PGT, reference compound] ([pGlu]-[ξThz]-OH)"
target_or_test_system = "reticulo-endothelial system"
result = "+14.06%"

[[record]]
molecule = "O=C1CC[C@@H](C(=O)N2CSCC2C(=O)N2CCOCC2)N1 (stereo partly shown) [Ib] ([pGlu]-[ξThz]-Morpholide)"
target_or_test_system = "reticulo-endothelial system"
result = "+19.37%"

